The following compounds are listed with their measured pIC50 values.
Target: factor B (Homo sapiens, UniProt P00751)
Sequence (P00751 26-764): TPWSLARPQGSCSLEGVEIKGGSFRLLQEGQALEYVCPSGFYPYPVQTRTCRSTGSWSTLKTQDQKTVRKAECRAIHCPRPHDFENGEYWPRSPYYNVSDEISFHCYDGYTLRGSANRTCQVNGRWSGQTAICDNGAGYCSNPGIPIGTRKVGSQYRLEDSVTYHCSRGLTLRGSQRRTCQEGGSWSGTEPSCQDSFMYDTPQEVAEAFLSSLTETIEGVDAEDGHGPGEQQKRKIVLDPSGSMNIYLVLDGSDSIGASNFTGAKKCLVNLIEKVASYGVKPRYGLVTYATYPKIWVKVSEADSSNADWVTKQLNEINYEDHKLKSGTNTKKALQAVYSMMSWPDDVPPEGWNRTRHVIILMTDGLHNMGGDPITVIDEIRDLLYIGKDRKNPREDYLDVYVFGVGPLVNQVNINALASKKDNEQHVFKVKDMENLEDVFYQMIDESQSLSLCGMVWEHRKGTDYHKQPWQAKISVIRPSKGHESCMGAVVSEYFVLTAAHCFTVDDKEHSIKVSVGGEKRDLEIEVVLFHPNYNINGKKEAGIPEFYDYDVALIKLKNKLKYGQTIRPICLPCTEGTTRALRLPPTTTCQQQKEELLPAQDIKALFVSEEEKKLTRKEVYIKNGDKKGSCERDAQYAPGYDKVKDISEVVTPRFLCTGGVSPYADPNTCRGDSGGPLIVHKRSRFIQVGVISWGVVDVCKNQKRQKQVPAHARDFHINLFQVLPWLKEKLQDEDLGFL
Experiment: assay of Biological Example 2.7
Assay type: binding
Design: made in house; host or cells: drosophila cells
Settings: assay of Biological Example 2.7 (Table 2)
# pIC50 is unitless: minus log10 of the molar concentration; print number only

Some compounds with recorded pIC50:
INSERT INTO results (compound, quantitative_readout) VALUES
  ('COC(=O)CC(C)(c1nc2cc(C#N)ccc2[nH]1)c1c(OC)cc(C)c2c1CCN2 (racemic) [Example 156-K]', 6.89),
  ('Cc1cc(O)c(C(N)(c2nc3cc(C#N)ccc3[nH]2)C(F)(F)F)c2cc[nH]c12 (single isomer, unassigned) [Example 141]', 6.82);

Turning now to a further record.
pIC50 measured on COc1cc(C)c2[nH]ccc2c1C(Cc1nn[nH]n1)c1nc2cc(C#N)ccc2[nH]1 (racemic) [Example 152] = 7.17
